Origin of values: ChEMBL document CHEMBL1124802

- MEASUREMENT_DESCRIPTION: Stimulation of Adenylate cyclase from rat striatal membranes
- Assay type: cell membranes, Membrane
pEC50: −log10 of the molar value.
Threshold check on pEC50: at or above 6 gives True, strictly below gives False.

Example results:
Oc1cc2c(cc1O)[C@H]1c3ccccc3CN[C@@H]1CC2 [DIHYDREXIDINE]    True
Oc1cc2c(cc1O)[C@@H](c1ccccc1)CNCC2 [(R)-SKF-38393]    True

Does pEC50 meet or surpass 6 for NCCc1ccc(O)c(O)c1 [DOPAMINE] ?
False

* * *

- MEASUREMENT_DESCRIPTION: Percentage maximum stimulation adenylate cyclase was measured versus DA
Max stimulation strictly under 50 means T; at 50 or over means F.

Example results:
Oc1ccc([C@@H]2CNCc3sccc32)cc1O    F
Oc1cc2c(cc1O)[C@H]1CCCN[C@@H]1CC2    T
CN1CCc2cc(Cl)c(O)cc2[C@@H](c2ccccc2)C1    T
Oc1cc2c(cc1O)CC(NCc1ccccc1)CC2 (stereo not given)    T
CCCN1Cc2ccccc2[C@@H]2c3cc(O)c(O)cc3CC[C@H]21    T

API: query returns whether the molecule falls strictly under 50 in Max stimulation. Query: CN1Cc2ccccc2[C@@H]2c3cc(O)c(O)cc3CC[C@H]21
F

API: query returns whether the molecule falls strictly under 50 in Max stimulation. Query: NCCc1ccc(O)c(O)c1 [DOPAMINE]
F

API: query returns whether the molecule falls strictly under 50 in Max stimulation. Query: Oc1cc2c(cc1O)[C@H]1c3ccccc3CN[C@@H]1CC2 [DIHYDREXIDINE]
F

API: query returns whether the molecule falls strictly under 50 in Max stimulation. Query: Oc1cc2c(cc1O)[C@@H]1c3ccccc3CN[C@@H]1CC2
T

* * *

- TGT: D(1A) dopamine receptor (Rattus norvegicus, UniProt P18901)
- Sequence (P18901 whole entry): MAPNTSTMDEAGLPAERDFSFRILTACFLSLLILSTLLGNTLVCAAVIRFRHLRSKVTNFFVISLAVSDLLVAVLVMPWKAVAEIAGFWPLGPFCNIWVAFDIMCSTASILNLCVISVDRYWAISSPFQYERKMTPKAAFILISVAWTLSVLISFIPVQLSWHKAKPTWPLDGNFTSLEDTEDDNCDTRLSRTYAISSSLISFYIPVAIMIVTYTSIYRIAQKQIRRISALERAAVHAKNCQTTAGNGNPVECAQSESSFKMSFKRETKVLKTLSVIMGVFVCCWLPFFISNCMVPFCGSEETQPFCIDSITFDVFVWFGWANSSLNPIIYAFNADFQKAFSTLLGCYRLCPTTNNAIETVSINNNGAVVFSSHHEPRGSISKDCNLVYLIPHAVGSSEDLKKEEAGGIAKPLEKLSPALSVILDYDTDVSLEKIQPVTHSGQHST
- MEASUREMENT_DESCRIPTION: Displacement of [3H]- #NAME? from binding Dopamine receptor D1 in rat striatum
What pIC50 was measured for each of the following?
Answers are plain numbers, as −log10 of the molar value.

CCCN1Cc2ccccc2[C@@H]2c3cc(O)c(O)cc3CC[C@H]21    6.19
CN1Cc2ccccc2[C@@H]2c3cc(O)c(O)cc3CC[C@H]21    7.04

Below: the item to evaluate.
If you can, please state the reported pIC50 value of Oc1ccc([C@@H]2CNCc3sccc32)cc1O .
6.92

* * *

- TGT: D(2) dopamine receptor (Rattus norvegicus)
- Sequence (P61169 whole entry): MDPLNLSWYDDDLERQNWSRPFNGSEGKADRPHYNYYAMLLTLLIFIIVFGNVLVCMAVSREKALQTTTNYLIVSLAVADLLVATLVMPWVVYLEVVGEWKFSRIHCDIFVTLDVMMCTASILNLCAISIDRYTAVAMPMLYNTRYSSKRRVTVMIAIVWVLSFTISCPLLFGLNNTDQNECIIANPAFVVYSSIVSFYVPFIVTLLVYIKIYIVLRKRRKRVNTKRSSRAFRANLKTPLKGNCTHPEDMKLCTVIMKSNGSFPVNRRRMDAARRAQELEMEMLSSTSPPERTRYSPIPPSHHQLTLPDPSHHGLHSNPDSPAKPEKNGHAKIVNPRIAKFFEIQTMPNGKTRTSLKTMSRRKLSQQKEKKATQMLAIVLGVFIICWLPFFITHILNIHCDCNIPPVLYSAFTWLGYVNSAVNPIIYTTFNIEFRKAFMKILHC
- MEASUREMENT_DESCRIPTION: Displacement of [3H]- -spiperone from Dopamine receptor D2 in rat striatum
pIC50: −log10 of the molar value.
Threshold check on pIC50: at or above 7 gives Condition met, strictly below gives Condition not met.

Example results:
Oc1ccc([C@@H]2CNCc3sccc32)cc1O    Condition not met
CCCN1Cc2ccccc2[C@@H]2c3cc(O)c(O)cc3CC[C@H]21    Condition met

Does pIC50 meet or surpass 7 for Oc1cc2c(cc1O)CC(NCc1ccccc1)CC2 (stereo not given) ?
Condition not met

* * *

What EC50 was measured for each of the following?
- MEASUREMENT_DESCRIPTION: Stimulation of Adenylate cyclase from rat striatal membranes
- Type: cell membranes, Membrane
Give bare numbers, in nM.

CN1Cc2ccccc2[C@@H]2c3cc(O)c(O)cc3CC[C@H]21    1000

Below: the item to evaluate.
If you can, please state the reported EC50 value of Oc1ccc([C@@H]2CNCc3sccc32)cc1O .
700
